The measured values listed here are drawn from patent US8389544B2.

system: Parental 293; assay: MTT cytotoxicity assay, parental 293 cells; format: cell-based; conditions: percentage of untreated control cells
Reported MTT Assay Parental 293 % Viability ± SEM maps to class as: c1 (below 40%), c2 (40% to below 70%), c3 (70% or more)

molecule	qualitativeLabel
COc1cccc(COc2cc3ccn(C)c(=O)c3cc2OC)c1 [IS044]	c3
COc1cc(COc2c(OC)ccc3c(=O)n(C)ccc23)cc(OC)c1 [IS528]	c1
COc1cccc(COc2c(OC)ccc3c(=O)n(C)ccc23)c1 [IS527]	c1
COc1ccc2c(=O)n(C)ccc2c1OCc1ccc(C)cc1 [IS529]	c1
COc1cccc(COc2cc3c(=O)n(C)ccc3cc2OC)c1 [IS521]	c2
COc1cc(COc2cc3ccn(C)c(=O)c3cc2OC)cc(OC)c1 [IS042]	c2
COc1ccc2[nH]c(I)c(CCNC(C)=O)c2c1 [Compound 2-IMT, 2-iodomelatonin, reference compound]	c3
COc1cc2ccn(C)c(=O)c2cc1OCc1ccc(C(C)(C)C)cc1 [IS526]	c1
COc1cc(COc2cc3c(=O)n(C)ccc3cc2OC)cc(OC)c1 [IS523]	c1
Cn1ccc2cc(OC(=O)c3ccccc3)c(OC(=O)c3ccccc3)cc2c1=O [IS039]	c3

====

molecular target: MT2 receptor (Homo sapiens, UniProt P49286); experiment: cAMP assay, MT2; type: cell-based; design: expressed in transfected cells; host or cells: COS-7 (monkey kidney fibroblast); details: inhibition of forskolin-stimulated cAMP production; MT2-expressing cells
// label = 1 if cAMP Assay MT2 % Inh is not less than 50%, otherwise -1

compound	measuredOn	qualitativeLabel
COc1cccc(COc2cc3ccn(C)c(=O)c3cc2OC)c1	MT2 receptor (Homo sapiens, UniProt P49286)	1
Cn1ccc2cc(OC(=O)c3ccccc3)c(OC(=O)c3ccccc3)cc2c1=O	MT2 receptor (Homo sapiens, UniProt P49286)	-1
COc1ccc2[nH]c(I)c(CCNC(C)=O)c2c1 [Compound 2-IMT, 2-iodomelatonin, reference compound]	MT2 receptor (Homo sapiens, UniProt P49286)	1
COc1cc2ccn(C)c(=O)c2cc1OCc1ccc(C(C)(C)C)cc1	MT2 receptor (Homo sapiens, UniProt P49286)	-1
COc1cc(COc2cc3ccn(C)c(=O)c3cc2OC)cc(OC)c1	MT2 receptor (Homo sapiens, UniProt P49286)	1
COc1cccc(COc2cc3c(=O)n(C)ccc3cc2OC)c1	MT2 receptor (Homo sapiens, UniProt P49286)	1
COc1ccc2c(=O)n(C)ccc2c1OCc1ccc(C)cc1	MT2 receptor (Homo sapiens, UniProt P49286)	-1

====

target: MT2 receptor (Homo sapiens, UniProt P49286); test: FLIPR Ca2+ mobilization assay, MT2; format: cell-based; design: expressed in transfected cells; host or cells: COS-7 (monkey kidney fibroblast); details: Table 2; MT2; read-out: EC50
pEC50: −log10 of the molar value.
If the reported pEC50 equals or exceeds 8, assign Criterion met. If not, assign Criterion not met.

molecule	qualitativeLabel
COc1cc(COc2cc3c(=O)n(C)ccc3cc2OC)cc(OC)c1 [IS523]	Criterion not met
COc1cc(COc2cc3ccn(C)c(=O)c3cc2OC)cc(OC)c1 [IS042]	Criterion met
Cn1ccc2cc(OC(=O)c3ccccc3)c(OC(=O)c3ccccc3)cc2c1=O [IS039]	Criterion met
COc1cccc(COc2c(OC)ccc3c(=O)n(C)ccc23)c1 [IS527]	Criterion met
COc1cc2ccn(C)c(=O)c2cc1OCc1ccc(C(C)(C)C)cc1 [IS526]	Criterion not met
COc1cc(COc2c(OC)ccc3c(=O)n(C)ccc23)cc(OC)c1 [IS528]	Criterion met
COc1ccc2c(=O)n(C)ccc2c1OCc1ccc(C)cc1 [IS529]	Criterion not met
COc1cccc(COc2cc3ccn(C)c(=O)c3cc2OC)c1 [IS044]	Criterion met

====

target: UniProtKB P49286; assay: FLIPR Ca2+ mobilization assay, MT2; format: cell-based; set-up: expressed in transfected cells; host or cells: COS-7 (monkey kidney fibroblast); details: read-out: % Response of 2-IMT
Emax under 60% gets class 1, anything at or over 60% gets class 0.

recordSmiles	qualitativeLabel
Cn1ccc2ccc(O)c(O)c2c1=O	class 1
COc1cccc(COc2c(OC)ccc3c(=O)n(C)ccc23)c1	class 0
C=CCOc1c(OC)ccc2c(=O)n(C)ccc12	class 1
COc1cccc(COc2cc3c(=O)n(C)ccc3cc2OC)c1	class 0
COc1cc2ccn(C)c(=O)c2cc1O	class 1

====

biological target: MT2 receptor (Homo sapiens, UniProt P49286); assay: FLIPR Ca2+ mobilization assay, MT2; type: cell-based; parameters: expressed in transfected cells; host or cells: COS-7 (monkey kidney fibroblast); conditions: Table 2; MT2; log value, negative

compound	logEC50 ± SEM
COc1cc(COc2c(OC)ccc3c(=O)n(C)ccc23)cc(OC)c1 [IS528]	−9.43
Cn1ccc2cc(OC(=O)c3ccccc3)c(OC(=O)c3ccccc3)cc2c1=O [IS039]	−8.64
COc1cc2ccn(C)c(=O)c2cc1OCc1ccc(C(C)(C)C)cc1 [IS526]	−5.42
COc1cccc(COc2cc3ccn(C)c(=O)c3cc2OC)c1 [IS044]	−8.42

====

Molecular target: UniProtKB P49286
Sequence (P49286 1-362): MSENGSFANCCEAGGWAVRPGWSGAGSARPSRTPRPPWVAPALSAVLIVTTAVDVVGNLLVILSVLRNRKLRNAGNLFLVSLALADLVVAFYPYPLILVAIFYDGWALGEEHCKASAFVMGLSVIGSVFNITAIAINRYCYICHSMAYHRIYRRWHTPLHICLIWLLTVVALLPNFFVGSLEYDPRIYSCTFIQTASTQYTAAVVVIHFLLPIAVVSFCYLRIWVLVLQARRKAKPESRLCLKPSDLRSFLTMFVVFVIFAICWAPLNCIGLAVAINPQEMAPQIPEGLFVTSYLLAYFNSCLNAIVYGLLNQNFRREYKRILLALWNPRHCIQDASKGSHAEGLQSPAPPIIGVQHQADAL
Experiment: FLIPR Ca2+ mobilization assay, MT2
Type: cell-based
Set-up: expressed in transfected cells; host or cells: COS-7 (monkey kidney fibroblast)
Settings: Table 1; MT2 in COS-7 cells with chimeric G protein; log value, negative; NSR = no significant response

recordSmiles	Log(EC50) ± SEM
COc1cccc(COc2cc3ccn(C)c(=O)c3cc2OC)c1	−8.42 ± 0.25
COc1ccc(O)c2c(=O)n(C)ccc12	−5.52
COc1ccc2c(=O)n(C)ccc2c1OCc1ccc(C(C)(C)C)cc1	−5.57 ± 0.75
COc1cc2c(=O)n(C)ccc2cc1O	NSR
Cn1ccc2cc(OC(=O)c3ccccc3)c(OC(=O)c3ccccc3)cc2c1=O	−8.64 ± 0.20
COc1cc2ccn(C)c(=O)c2cc1OCc1ccccc1	NSR
COc1cc(COc2c(OC)ccc3c(=O)n(C)ccc23)cc(OC)c1	−9.43 ± 0.75
COc1cc2ccn(C)c(=O)c2cc1OCCCc1ccccc1	−6.00 ± 0.01
COc1ccc(C(=O)COc2c(OC)ccc3c(=O)n(C)ccc23)cc1	−6.35 ± 0.06
COc1cc2ccn(C)c(=O)c2cc1OCc1ccc(C(C)(C)C)cc1	−5.42 ± 0.76

====

Target: MT2 receptor (Homo sapiens, UniProt P49286)
Experiment: FLIPR Ca2+ mobilization assay, MT2
Assay type: cell-based
Set-up: expressed in transfected cells; host or cells: COS-7 (monkey kidney fibroblast)
Details: Table 1; MT2; relative to 2-IMT response
Protocol: 1. FLIPR Ca^2+ Mobilization Assay This assay indicates the ability of the novel compounds to activate MT1 and MT2 receptors by measuring downstream events of the activated receptor, in this case intracellular calcium mobilization. 1. Intracellular Ca^2+ Mobilization Assay Using Fluorometric Imaging Plate Reader (FLIPR®) […] Then the intracellular Ca^2+ mobilization assays using the Fluorometric Imaging Plate Reader (FLIPR®) were performed as described above.
List of % Response of 2-IMT values.

compound	% Response of 2-IMT / %
COc1ccc2c(=O)n(C)ccc2c1OCc1ccc(C(C)(C)C)cc1 [IS532]	22.3
COc1ccc(C(=O)COc2c(OC)ccc3c(=O)n(C)ccc23)cc1 [IS010]	53.0
COc1cc2ccn(C)c(=O)c2cc1OCCCc1ccccc1 [IS013]	101.9

====

Collected ERK Phosphorylation MT1 Fold Stim. values appear next to each entry.
target: MT1 receptor (Homo sapiens); assay: ERK phosphorylation assay, MT1; assay type: cell-based; set-up: expressed in transfected cells; conditions: HEK293 cells; isoquinolone 1 μM or 2-iodomelatonin 100 nM, 5 min; against unstimulated control cells
Sequence (P48039 whole entry): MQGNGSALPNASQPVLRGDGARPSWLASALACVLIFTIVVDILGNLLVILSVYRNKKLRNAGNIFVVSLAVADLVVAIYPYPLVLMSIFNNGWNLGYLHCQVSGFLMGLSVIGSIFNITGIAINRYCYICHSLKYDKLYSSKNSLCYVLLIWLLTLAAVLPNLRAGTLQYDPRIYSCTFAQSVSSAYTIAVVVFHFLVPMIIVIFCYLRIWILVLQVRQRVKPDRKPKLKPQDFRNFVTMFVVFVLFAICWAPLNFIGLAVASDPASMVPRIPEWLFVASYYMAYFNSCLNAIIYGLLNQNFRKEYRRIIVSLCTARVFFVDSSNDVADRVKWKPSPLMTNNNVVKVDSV
measurementKind: ERK Phosphorylation MT1 Fold Stim.

molecule	endpointResult
COc1cc(COc2c(OC)ccc3c(=O)n(C)ccc23)cc(OC)c1 [IS528]	1.73 Fold
Cn1ccc2cc(OC(=O)c3ccccc3)c(OC(=O)c3ccccc3)cc2c1=O [IS039]	2.75 Fold
COc1cccc(COc2c(OC)ccc3c(=O)n(C)ccc23)c1 [IS527]	2.47 Fold
COc1cccc(COc2cc3c(=O)n(C)ccc3cc2OC)c1 [IS521]	3.80 Fold
COc1cccc(COc2cc3ccn(C)c(=O)c3cc2OC)c1 [IS044]	3.25 Fold
COc1cc(COc2cc3ccn(C)c(=O)c3cc2OC)cc(OC)c1 [IS042]	4.94 Fold
COc1cc(COc2cc3c(=O)n(C)ccc3cc2OC)cc(OC)c1 [IS523]	3.74 Fold
COc1ccc2c(=O)n(C)ccc2c1OCc1ccc(C)cc1 [IS529]	2.37 Fold
